# test.details: chemical genetic growth profiling, strain panel (AID 1159580);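 note: tested at 20 µM; growth read once vehicle control cultures reached saturation at 30 °C; 1 = growth at the plate median or of vehicle wells; lower values mean less growth of the strain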
# run.parameters: S. cerevisiae deletion strains, growth OD, locus YPR163C, strain tif3, active compounds read low
In all, about 5,500 compounds went through this assay and about 2,000 (36%) were called active. About 18% were inconclusive and are not listed. The list shows a part of the results.
observable: normalized growth

CC(=O)O[C@@H]1CC2C(C)(C)C(=O)C=C[C@]2(C)C2CC[C@]3(C)C(=CC(=O)O[C@H]3c3ccoc3)[C@@]21C (stereo partly specified): 0.971 (inactive)
OC[C@H]1O[C@@H](O[C@@H]2[C@@H](CO)O[C@](O)(CO)[C@H]2O)[C@H](O)[C@@H](O)[C@H]1O: 0.972 (inactive)
CC(=O)Oc1ccc(/C=C/c2cc(OC(C)=O)cc(OC(C)=O)c2)cc1: 0.994 (inactive)
CC(=O)O[C@@H]1CC[C@@]2(C)C(C[C@@H](OC(C)=O)[C@@]3(C)C4=CC(=O)O[C@@H](c5ccoc5)[C@]4(C)CCC23)C1(C)C (stereo partly specified): 0.988 (inactive)
CC(=O)O[C@H]1CC[C@@]2(C)C(C[C@@H](OC(C)=O)[C@@]3(C)C4=CC(=O)O[C@@H](c5ccoc5)[C@]4(C)CCC23)C1(C)C (stereo partly specified): 0.989 (inactive)

Turning to the following molecule.
Quick one: normalized growth of CC(=O)O[C@@H]1CC2C(C)(C)[C@H](O)C=C[C@]2(C)C2CC[C@]3(C)C(=CC(=O)O[C@H]3c3ccoc3)[C@@]21C (stereo partly specified) ?
0.994 (inactive)

---

Give measured normalized growth for each item. Keep answers brief.
# test.details: chemical genetic growth profiling, strain panel (AID 1159580)
# run.parameters: S. cerevisiae deletion strains, growth OD, locus YNR049C, strain mso1, active compounds read low
About 2,000 (36%) of roughly 5,500 compounds were called active. Roughly 18% stayed inconclusive and do not appear here. This is one part of the list.
Numbers only.

The cases that follow already have their normalized growth on record.
Oc1cccc(O)c1: 0.971
CC(=O)O[C@H]1CC[C@@]2(C)C(C[C@@H](OC(C)=O)[C@@]3(C)C4=CC(=O)O[C@@H](c5ccoc5)[C@]4(C)CCC23)C1(C)C (stereo not given in full): 1.01
CC(=O)O[C@@H]1CC2C(C)(C)C(=O)C=C[C@]2(C)C2CC[C@]3(C)C(=CC(=O)O[C@H]3c3ccoc3)[C@@]21C (stereo not given in full): 1.02
CC(=O)OCC(=O)[C@@]1(O)[C@H](C)CC2C3CCC4=CC(=O)C=C[C@]4(C)[C@@]3(F)[C@@H](O)C[C@@]21C (stereo not given in full): 0.982
Cc1nc(N)cc(C[n+]2csc(CCO)c2C)n1: 0.978
CCC(C)C(=O)OC1[C@@H]2CC3=C4CC(=O)O[C@@H](c5ccoc5)[C@]4(C)CCC3[C@@](C)(C2=O)[C@@H](CC(=O)OC)C1(C)C (stereo not given in full): 1.01
CC(N=C(NC#N)Nc1ccncc1)C(C)(C)C (stereo not given): 0.986
Cc1cc(=O)oc2cc(O)c(O)cc12: 0.989
COc1ccc(C2Sc3ccccc3N(CCN(C)C)C(=O)C2OC(C)=O)cc1 (stereo not given): 0.977
CC(C)(C)NC[C@H](O)c1ccc(O)c(CO)c1: 1.02

For every record below, what is its normalized growth?
1. CCOC(=O)NNc1nncc2ccccc12
2. CC(=O)O[C@H]1CCC2(C)C3=C(CCC2C1(C)C)[C@]1(C)CCC(C(C)CCC=C(C)C)[C@@]1(C)CC3 (stereo not given in full)
3. O=C1NC(O)=NC1(c1ccccc1)c1ccccc1
4. CC(Cc1cccc(C(F)(F)F)c1)NCCOC(=O)c1ccccc1 (stereo not given)
5. CC(C)=CCc1c2c(c3occ(-c4ccc(O)c(O)c4)c(=O)c3c1O)C=CC(C)(C)O2
6. CC(=O)N[C@@H](Cc1c[nH]c2ccccc12)C(N)=O
7. CC(C)=CCc1c2c(c3occ(-c4ccc(O)cc4)c(=O)c3c1O)C=CC(C)(C)O2

[1, 0.988, 1.01, 0.998, 0.985, 1.02, 0.999]

---

Can you tell me normalized growth for the items I'm about to list?
# test.details: chemical genetic growth profiling, strain panel (AID 1159580)
# run.parameters: S. cerevisiae deletion strains, growth OD, locus YAL030W, strain snc1, active compounds read low
The whole screen tested about 5,500 compounds, of which about 2,000 (36%) were called active. Inconclusive results (about 18%) are left out. The list shows a part of the results.
One number for each entry.

C=C1c2cccc(O)c2C(O)=C2C(=O)[C@]3(O)C(O)=C(C(N)=O)C(=O)[C@@H](N(C)C)[C@@H]3[C@@H](O)[C@H]12: 1.01
NC(=O)c1cccnc1: 0.958
CN(C)[C@@H]1C(=O)C(C(N)=O)=C(O)[C@@]2(O)C(=O)C3=C(O)c4c(O)cccc4[C@@](C)(O)[C@H]3[C@H](O)[C@@H]12: 1
CC(=O)c1ccc(O)c(CC=C(C)C)c1: 0.972
CC(=O)Nc1ccc(S(=O)(=O)Nc2onc(C)c2C)cc1: 0.98
CC(C)(C)NCC(O)c1ccc(O)c(CO)c1 (stereo not given): 1.02
CN(C)[C@@H]1C(=O)C(C(=O)NCN2CCCC2)=C(O)[C@@]2(O)C(=O)C3=C(O)c4c(O)cccc4[C@@](C)(O)[C@H]3C[C@@H]12: 0.994
CC(CCc1ccccc1)NCC(O)c1ccc(O)c(C(N)=O)c1 (stereo not given): 0.997
CC(=O)O[C@H]1CCC2(C)C3=C(CCC2C1(C)C)[C@@]1(C)CC[C@@H](C(C)CCC=C(C)C)[C@]1(C)CC3 (stereo not given in full): 1.03

# context switch: different compound, same normalized growth
Suppose we examine the compound `CC1=CC(=O)c2ccccc2C1=O` ; what normalized growth value has been reported?
1.02

---

# test.details: chemical genetic growth profiling, strain panel (AID 1159580)
# run.parameters: S. cerevisiae deletion strains, growth OD, locus YDR195W, strain ref2
In all, about 5,500 compounds went through this assay and about 2,000 (36%) were called active. Roughly 18% stayed inconclusive and do not appear here. Some of the results follow.
Kindly supply the reported normalized growth values for the records listed here.
Give bare numbers.

O=C(O)c1cccnc1: 1.01

Batch request: normalized growth per item, same order as input.
1. O=C(O)c1ccccc1
2. NCC(N)C(=O)c1ccccc1 (stereo unspecified)
3. NCC(=O)c1ccccc1
4. NC(Cn1ccc(=O)c(O)c1)C(=O)O (stereo unspecified)
5. CNNC
6. CCN(CC)CCOC(=O)C1(C2CCCCC2)CCCCC1

1: 1.02; 2: 1.01; 3: 0.976; 4: 1.01; 5: 0.981; 6: 0.994

---

# test.details: chemical genetic growth profiling, strain panel (AID 1159580);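 note: tested at 20 µM; growth read once vehicle control cultures reached saturation at 30 °C; 1 = growth at the plate median or of vehicle wells; lower values mean less growth of the strain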
# run.parameters: S. cerevisiae deletion strains, growth OD, locus YKR026C, strain gcn3, active compounds read low
In all, about 5,500 compounds went through this assay and about 2,000 (36%) were called active. Not shown: some 18% with an inconclusive outcome. Some of the results follow.
Field: normalized growth. Provide a value for each of the compounds that follow.
Numbers only.

Some entries whose results are on file:
NC(=O)NC(=O)Cc1ccccc1: 0.993
COC(=O)c1c(OC)cc2c(c1C)Oc1c(Cl)c(OC(C)=O)c(Cl)c(C)c1C(=O)O2: 0.996
NCC(=O)c1ccccc1: 1
O=C(OOC(=O)c1ccccc1)c1ccccc1: 0.979
COC(=O)c1c(OC)cc2c(c1C)Oc1c(Cl)c(O)c(Cl)c(C)c1C(=O)O2: 0.977

// each listed compound needs a value for normalized growth
1. CCCOc1ccc2nc(NC(=O)OC)[nH]c2c1
2. C/C1=C/CC(C)(C)/C=C/C/C(C)=C/CC1

[1.02, 0.983]

---

# test.details: chemical genetic growth profiling, strain panel (AID 1159580);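 note: tested at 20 µM; growth read once vehicle control cultures reached saturation at 30 °C; 1 = growth at the plate median or of vehicle wells; lower values mean less growth of the strain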
# run.parameters: S. cerevisiae deletion strains, growth OD, locus YLR221C, strain rsa3, active compounds read low
Hit rate of the full screen: of about 5,500 compounds, about 2,000 (36%) were called active. Inconclusive results (about 18%) are left out. This is one part of the list.
Provide the recorded normalized growth for the entries that follow.
Give bare numbers.

Cc1cn[nH]c1: 1.02

Would you mind giving normalized growth for every molecule in the list below?
1. COC(=O)/C(=C1\OC(=O)C(c2ccccc2)=C1O)c1ccccc1
2. CC12CCC3C(CC3(C)C)C(C)(CCC1=O)O2 (stereo not drawn)

1. 0.981
2. 1

---

Answer each item with its documented normalized growth.
# test.details: chemical genetic growth profiling, strain panel (AID 1159580);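 note: tested at 20 µM; growth read once vehicle control cultures reached saturation at 30 °C; 1 = growth at the plate median or of vehicle wells; lower values mean less growth of the strain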
# run.parameters: S. cerevisiae deletion strains, growth OD, locus YHR079C, strain IRE1, active compounds read low
Among all 5,500 compounds or so, about 2,000 (36%) were called active. Another 18% or so got no clear call; they are omitted. Some of the results follow.
Numbers only.

Consider the worked cases shown below.
COC(=O)C1=C(Nc2ccccc2NS(=O)(=O)c2ccc(C(F)(F)F)cc2Cl)CSC1: 0.97
CC(=O)Nc1ccc(S(=O)(=O)Nc2onc(C)c2C)cc1: 0.968
CC(C)(C)c1cc(C(=O)Nc2ccc3c(c2)OCO3)n(Cc2ccc(F)cc2)n1: 0.926

GET /values?readout=normalized growth&item= `N[C@@H](CCC(=O)N[C@@H](CS)C(=O)NCC(=O)O)C(=O)O`
0.928

Data origin, for the record: PubChem BioAssay AID1159580
